The measured values listed here are drawn from ChEMBL document CHEMBL1122883.

Parameter pA2 - pA10: see the listing below.
# Experimental System: Beta-2 adrenergic receptor (Cavia porcellus)
# Procedure Summary: Specific antagonistic activity difference against beta-2 adrenergic receptor of isolated guinea pig tracheal strips
# Assay type: functional
Endpoint Label: pA2 - pA10

CC(C)NCC(O)CON=C1CCCC1 (centres undefined)
0.71
CC(C)NCC(O)CON=C(C(C)C)C(C)C (centres undefined)
0.9
CCC(CC)=NOCC(O)CNC(C)C (centres undefined)
0.81
CC(C)NCC(O)CON=C1CCCCC1 (centres undefined)
0.5

* * *

# Experimental System: Beta-2 adrenergic receptor (Cavia porcellus)
# Procedure Summary: Antagonistic activity against beta-2 adrenergic receptor of isolated guinea pig tracheal strips
# Format: functional, tissue-based
# Details: Trachea
Parameter pA10: see the listing below.
Endpoint Label: pA10

CC(C)NCC(O)CON=C(C(C)C)C(C)C (centres undefined)
7.62
CCCC(CCC)=NOCC(O)CNC(C)(C)C (centres undefined)
7.93
CC(C)(C)NCC(O)CON=C1CCCCC1 (centres undefined)
6.81
CC(C)(C)NCC(O)CON=C1CCCC1 (centres undefined)
5.88
